These measurements were taken from ChEMBL document CHEMBL1129462.

Reported inhibition values for the following compounds.
- assayedSystem: Angiotensin II receptor (Rattus norvegicus) (UniProt P29089+P25095+P35351)
- testSummary: Percent inhibition of angiotensin II (0.1 ug/kg iv) -induced pressor response 3h after administration of test compounds (1 mg/kg po) in conscious male Sprague-Dawley rats
- Assay type: functional, organism-based
Answer in %, number only, no unit symbol.

// below: answered compounds
compound: CCCc1nc2cccc(C(=O)O)c2n1Cc1ccc(-c2ccccc2-c2noc(S)n2)cc1
assayedSystem: Angiotensin II receptor (Rattus norvegicus) (UniProt P29089+P25095+P35351)
resultValue: 96
//
compound: CCCOc1nc2cccc(C(=O)O)c2n1Cc1ccc(-c2ccccc2-c2nsc(O)n2)cc1
assayedSystem: Angiotensin II receptor (Rattus norvegicus) (UniProt P29089+P25095+P35351)
resultValue: 83

The recorded inhibition for CCOc1nc2cccc(C(=O)OC)c2n1Cc1ccc(-c2ccccc2-c2noc(O)n2)cc1 is 100

The recorded inhibition for Cc1nc2cccc(C(=O)O)c2n1Cc1ccc(-c2ccccc2-c2nsc(O)n2)cc1 is 80

The recorded inhibition for CCCCc1nc2cccc(C(=O)OC)c2n1Cc1ccc(-c2ccccc2C2=NOS(=O)N2)cc1 (stereo not given) is 63

The recorded inhibition for CSc1nc2cccc(C(=O)O)c2n1Cc1ccc(-c2ccccc2-c2noc(S)n2)cc1 is 100

The recorded inhibition for CCCSc1nc2cccc(C(=O)O)c2n1Cc1ccc(-c2ccccc2-c2nsc(O)n2)cc1 is 100

The recorded inhibition for CCCCc1nc2cccc(C(=O)O)c2n1Cc1ccc(-c2ccccc2-c2nsc(O)n2)cc1 is 92

The recorded inhibition for CCc1nc2cccc(C(=O)O)c2n1Cc1ccc(-c2ccccc2-c2noc(S)n2)cc1 is 91

The recorded inhibition for CSc1nc2cccc(C(=O)O)c2n1Cc1ccc(-c2ccccc2-c2nsc(O)n2)cc1 is 100
